- System Under Test: type 2 human 5α-reductase (HRED2) (Homo sapiens)
- Sequence (P31213 whole entry): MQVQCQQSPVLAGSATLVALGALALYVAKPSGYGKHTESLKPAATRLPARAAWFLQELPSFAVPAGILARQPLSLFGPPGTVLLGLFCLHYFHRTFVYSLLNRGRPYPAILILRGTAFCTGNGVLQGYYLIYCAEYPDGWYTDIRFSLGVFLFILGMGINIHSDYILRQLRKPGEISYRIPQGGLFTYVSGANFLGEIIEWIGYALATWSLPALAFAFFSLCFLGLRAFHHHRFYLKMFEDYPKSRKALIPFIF
- Experimental Details: Cell free assay of 5α-reductase, microsomes of rat 1A cells expressing type 2 isoenzyme (HRED2)
- Assay type: biochemical
- Design: expressed in transfected cells; host or cells: rat 1A cells infected with pMV7 retrovirus; microsomes
Recorded Endpoint: pIC50
Please note pIC50 is a logarithmic value: minus log10 of concentration in mol/L. Answer with that number alone.

// known answers, use as guide
Compound | Recorded Endpoint | Test Result
Oc1ccc2c(O)c3ccccc3cc2c1O [Anthrarobin] | pIC50 | 4.30
CCCCCCCC/C=C\CCCCCCCC(=O)O [Oleic Acid, Oleic Acid C18:1 CIS 9] | pIC50 | 4.38

Please turn your attention to the following entry.
Field request: pIC50 | item: Cc1cc2c(C(C)C)c(O)c(O)c(C=O)c2c(O)c1-c1c(C)cc2c(C(C)C)c(O)c(O)c(C=O)c2c1O [Gossypol]
4.68

----------
Catalogue of pIC50 values
- System Under Test: type 2 human 5α-reductase (HRED2) (Homo sapiens)
- Experimental Details: Cell free assay of 5α-reductase, microsomes of rat 1A cells expressing type 2 isoenzyme (HRED2);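 further: labeled testosterone and its product dihydrotestosterone measured in microsomal reaction extracts via thin layer chromatography plus radioanalytic scanning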
- Type: biochemical
- Parameters: expressed in transfected cells; host or cells: rat 1A cells infected with pMV7 retrovirus; microsomes
- Assay Context: cell-free assay; read-out: IC50, type 2 isoenzyme
Please note pIC50 is a logarithmic value: minus log10 of concentration in mol/L. Answer with that number alone.

Molecule | System Under Test | pIC50
CCCCC/C=C\C/C=C\C/C=C\CCCCC(=O)O [Gamma-Linolenic Acid, Gamma-Linolenic Acid C18:3 CIS 6.9,12] | type 2 human 5α-reductase (HRED2) (Homo sapiens) | 5.52

Please turn your attention to the following entry.
Field request: pIC50 | item: `CCCCCC#CCC#CCC#CCC#CCCCC(=O)O`
5.52

----------
Catalogue of inhibition at 100 µM values
- System Under Test: type 1 human 5α-reductase (HRED1) (Homo sapiens, UniProt P18405)
- Sequence (P18405 whole entry): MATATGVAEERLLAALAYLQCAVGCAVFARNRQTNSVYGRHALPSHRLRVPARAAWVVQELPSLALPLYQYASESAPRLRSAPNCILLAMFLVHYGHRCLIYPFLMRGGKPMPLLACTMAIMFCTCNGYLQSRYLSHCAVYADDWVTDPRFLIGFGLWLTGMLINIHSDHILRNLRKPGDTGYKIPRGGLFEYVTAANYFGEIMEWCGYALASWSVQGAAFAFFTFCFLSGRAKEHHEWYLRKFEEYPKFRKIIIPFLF
- Experimental Details: Cell free assay of 5α-reductase, microsomes of rat 1A cells expressing type 1 isoenzyme (HRED1);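 further: microsomes from rat 1A cells expressing human type 1 5α-reductase, conversion of radiolabeled testosterone to dihydrotestosterone quantified by thin layer chromatography with radioanalytic scanning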
- Assay type: biochemical
- Set-up: expressed in transfected cells; host or cells: rat 1A cells infected with pMV7 retrovirus; microsomes
- Assay Context: read-out: HRED1 % Inhibition @ 100 uM
Please reply with the bare figure in % and do not write the unit itself.

// known answers, use as guide
Molecule | inhibition at 100 µM [%]
Cc1cc2c(C(C)C)c(O)c(O)c(C=O)c2c(O)c1-c1c(C)cc2c(C(C)C)c(O)c(O)c(C=O)c2c1O | 99
Oc1ccc2c(O)c3ccccc3cc2c1O | 99
COc1cc(CCC(=O)CC(=O)CCc2ccc(O)c(OC)c2)ccc1O [Tetrahydrocurcumin] | 56

Field request: inhibition at 100 µM | item: `C=CCc1ccc(O)c(OC)c1`
0

How about this molecule: O=C(O[C@@H]1Cc2c(O)cc(O)cc2O[C@@H]1c1ccc(O)c(O)c1)c1cc(O)c(O)c(O)c1 [Epicatechin Gallate]
100

How about this molecule: `Oc1ccccc1O`
5

----------
- System Under Test: type 1 human 5α-reductase (HRED1) (Homo sapiens, UniProt P18405)
- Experimental Details: Whole cell assay of 5α-reductase, type 1 isoenzyme;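 further: intact rat 1A cells engineered to express the human type 1 5α-reductase isozyme serve as the enzyme source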
- Format: cell-based
- Set-up: expressed in transfected cells; host or cells: rat 1A cells infected with pMV7 retrovirus
- Assay Context: 100 μM; whole cell assay; Table 7
Catalogue of inhibition at 100 µM values
Please reply with the bare figure in % and do not write the unit itself.

// known answers, use as guide
Compound | Readout Units | inhibition at 100 µM
O=C(O)c1cc(O)c(O)c(O)c1 [Gallic Acid] | % | 13
Cc1cc2c(C(C)C)c(O)c(O)c(C=O)c2c(O)c1-c1c(C)cc2c(C(C)C)c(O)c(O)c(C=O)c2c1O [Gossypol] | % | 100
Oc1ccc2c(O)c3ccccc3cc2c1O [Anthrarobin] | % | 91
O=C1c2ccccc2C(=O)c2c1ccc(O)c2O [Alizarin] | % | 75
COc1cc(CCC(=O)CC(=O)CCc2ccc(O)c(OC)c2)ccc1O [Tetrahydrocurcumin] | % | 81
CC1=CC(=O)c2ccccc2C1=O [Menadione] | % | 82
COc1cc(/C=C/C(=O)CC(=O)/C=C/c2ccc(O)c(OC)c2)ccc1O [Curcumin] | % | 99
CCCOC(=O)c1cc(O)c(O)c(O)c1 [Propylgallate] | % | 5

Field request: inhibition at 100 µM | item: O=C(O[C@@H]1Cc2c(O)cc(O)cc2O[C@@H]1c1ccc(O)c(O)c1)c1cc(O)c(O)c(O)c1 [Epicatechin Gallate]
0

How about this compound: Oc1ccccc1O [Catechol]
9

How about this compound: Oc1cc(O)c2c(c1)O[C@H](c1ccc(O)c(O)c1)[C@H](O)C2 [Epicatechin]
0

How about this compound: CCCCCCCCCCCCOC(=O)c1cc(O)c(O)c(O)c1 [Dodecylgallate]
99

How about this compound: CC(C)OC(=O)c1cc(O)c(O)c(O)c1 [Isopropyl Gallate]
0
